Cited source: ChEMBL document CHEMBL5316360

Assign IC50 to each entry below.
# Target system: Tubulin
# Protocol: Inhibition of tubulin polymerization in human MCF7 cells incubated for 18 to 24 hrs by ELISA method
Numeric answer plus unit only.

CCCCCCCCCCCCCCCCCC(=O)Nc1ccc(C(=O)/C=C/c2ccccc2)cc1 | 800 nM

Please examine the following record next.
Q. IC50 for CCCCCCCC(=O)Nc1ccc(C(=O)/C=C/c2ccccc2)cc1 ?
A. 1500 nM
